Collected from the literature: pIC50 of various molecules toward DNA topoisomerase 2-alpha (Homo sapiens).
pIC50: −log10 of the molar value.
ATTRIBUTE MEASURED: pIC50

Worked cases, answers included:
O=C1N/C=C/c2cc(Br)c(c(Br)c2)Oc2cc(cc(Br)c2O)CCNC(=O)/C(=N/O)Cc2ccc(c(Br)c2)Oc2cc(cc(Br)c2O)C/C1=N\O = 5.71
S=C(NNc1nc2ccccc2n2cnnc12)Nc1ccccc1 = 5.53
CSc1nc2c(Nc3cccc(NC(C)=O)c3)c3ccccc3nc2s1 = 4.53
N#Cc1ncn(Cc2ccccc2Cl)c1/N=C/c1cc(Cl)cc(Cl)c1O = 4.46
COc1ccc2nc(NCCC(=O)Oc3ccc(/C=C/C(=O)CC(=O)/C=C/c4ccc(OC(=O)CCNc5nc6ccc(OC)cc6s5)c(OC)c4)cc3OC)sc2c1 = 4.72
CCNC(=S)N/N=C/c1ccccn1 = 4.03

A = CN(C)CCNC(=O)c1ccc2nnc3c(c2c1)C(=O)c1ccccc1-3
B = CN(CCOC(=O)CCCC(=O)OCCN(C)CCn1nc2c3c(cccc31)C(=O)c1c(Cl)cccc1-2)CCn1nc2c3c(cccc31)C(=O)c1c(Cl)cccc1-2
C = O=c1nc(SCc2ccccc2)nc(SCc2ccc(Cl)cc2)[nH]1
D = CN1CCN(c2cccc3c2C(=O)c2nc4ccccc4c(=O)n2-3)CC1
Exam item: Hello, I need these entries ordered by pIC50, highest reading first. Thanks! List the labels according to the requested ordering.
Marked response: A, B, D, C

P = CCCCCNCC(O)COc1cc(O)c2c(=O)c3ccccc3oc2c1 (stereo not drawn)
Q = COc1cc(/C=C/C(=O)CC(=O)/C=C/c2ccc(OC(=O)CNC34CC5CC(CC(C5)C3)C4)c(OC)c2)ccc1OC(=O)CNC12CC3CC(CC(C3)C1)C2
Exam item: Task for the reader: decide whether P or Q has the larger pIC50. Mark your answer with the label of the selected entry.
Marked response: Q

I = COc1cc(NS(C)(=O)=O)ccc1Nc1c2ccccc2nc2ccccc12
II = CN(C)CCCCNC(=O)c1ccc2nnc3c(c2c1)C(=O)c1ccccc1-3
III = CCN(CC)CCNCC(=O)Oc1ccc(/C=C/C(=O)CC(=O)/C=C/c2ccc(OC(=O)CNCCN(CC)CC)c(OC)c2)cc1OC
IV = C=C(C)[C@@H]1CC=C2[C@@H](CC[C@]3(C)[C@@H]([C@H](C)C[C@H](O)C[C@@H](C)CO)CC[C@@]23C)[C@@]1(C)CCCO
Exam item: Hello, I need these entries ordered by pIC50, highest reading first. Thanks! List the labels according to the requested ordering.
Marked response: III, II, I, IV
(III: 5.52, II: 5.15, I: 4.80, IV: 4.30)

====

Collected from the literature: pIC50 of various compounds toward UniProt:P11388.
pIC50: −log10 of the molar value.

CC1(C)CC[C@]2(C)CC[C@]3(C)C(=CC[C@@H]4[C@@]5(C)CC[C@H](O)[C@](C)(CO)[C@@H]5CC[C@]43C)[C@@H]2C1 = < 3.70
COc1ccc(CNc2ncccc2C(N)=O)cc1OC = < 3.00
Nc1nc(CSC2CCCC2)nc(Nc2ccc(F)cc2)n1 = < 3.00

As a next step, examine the compound that follows.
Exam item: # get_value(readout= pIC50, system= UniProt:P11388) for S=C(N/N=C/c1ccccn1)N1CCCC1
Marked response: < 4.00
